Values from ChEMBL document CHEMBL4007462

# run-description: in vitro
# run-conditions: mouse, B16 cells
# Description: Cytotoxicity against mouse B16 cells after 24 hrs by MTT assay
measurement-kind: MNTC at 24 h (µM)

- C=CC(C)(C)c1cc(C2CC(=O)c3c(cc(O)c(CC=C(C)C)c3O)O2)c(OC)cc1O (centres undefined): 50
- C=CC(C)(C)c1cc(C2CC(=O)c3c(O)cc(O)c(CC=C(C)C)c3O2)c(O)cc1O (centres undefined): 10

I. C=CC(C)(C)c1cc(C2CC(=O)c3c(O)cc(O)c(CC=C(C)C)c3O2)c(OC)cc1O (centres undefined)
II. CC(C)=CCc1c(O)cc2c(c1O)C(=O)CC(c1ccc(O)c(O)c1CC=C(C)C)O2 (centres undefined)
[ask] Identify the entry with the larger MNTC at 24 h. Options: I and II # reply format: chosen label
[reply] I
(I: 5 µM, II: 1 µM)

====

# assayed-system: Mushroom tyrosinase (Agaricus bisporus) (UniProt O42713+Q00024+C7FF04+C7FF05)
# run-description: Inhibition of mushroom tyrosinase at 10 uM using L-tyrosine as substrate preincubated for 10 mins followed by substrate addition measured after 20 mins by spectrophotometric method relative to control
measurement-kind: inhibition (%)

Sample answers from the record:
* C=CC(C)(C)c1cc(C2CC(=O)c3c(cc(O)c(CC=C(C)C)c3O)O2)c(OC)cc1O (centres undefined) | 0
* C=CC(C)(C)c1cc(C2CC(=O)c3c(O)cc(O)c(CC=C(C)C)c3O2)c(OC)cc1O (centres undefined) | 21.5

I. C=CC(C)(C)c1cc(C2CC(=O)c3c(O)cc(O)c(CC=C(C)C)c3O2)c(O)cc1O (centres undefined)
II. CC(C)=CCc1c(O)cc2c(c1O)C(=O)CC(c1ccc(O)c(O)c1CC=C(C)C)O2 (centres undefined)
[ask] Identify the entry with the larger inhibition. Options: I and II # reply format: chosen label
[reply] I

====

# assayed-system: Tyrosinase (Mus musculus)
# Sequence (P11344 whole entry): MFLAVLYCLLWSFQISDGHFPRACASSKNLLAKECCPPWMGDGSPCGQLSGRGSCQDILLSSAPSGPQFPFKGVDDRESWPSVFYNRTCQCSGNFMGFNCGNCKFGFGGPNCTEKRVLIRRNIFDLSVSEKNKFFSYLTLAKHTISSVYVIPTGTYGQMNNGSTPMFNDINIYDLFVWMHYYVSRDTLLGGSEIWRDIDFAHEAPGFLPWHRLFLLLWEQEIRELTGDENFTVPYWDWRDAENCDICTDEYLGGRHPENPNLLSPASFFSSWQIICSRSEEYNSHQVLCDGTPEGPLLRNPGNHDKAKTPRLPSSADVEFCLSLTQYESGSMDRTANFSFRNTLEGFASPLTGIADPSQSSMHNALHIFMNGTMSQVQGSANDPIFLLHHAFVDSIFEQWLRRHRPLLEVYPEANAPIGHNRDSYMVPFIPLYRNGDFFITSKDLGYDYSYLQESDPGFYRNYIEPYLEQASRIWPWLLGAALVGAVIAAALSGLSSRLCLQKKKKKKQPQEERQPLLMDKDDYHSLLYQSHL
pIC50: −log10 of the molar value.
measurement-kind: pIC50

- CC(C)=CCc1c(O)cc2c(c1O)C(=O)CC(c1ccc(O)c(O)c1CC=C(C)C)O2 (configuration not stated): 6.12
- C=CC(C)(C)c1cc(C2CC(=O)c3c(O)cc(O)c(CC=C(C)C)c3O2)c(O)cc1O (configuration not stated): 6.00

====

# assayed-system: Mushroom tyrosinase (Agaricus bisporus) (UniProt O42713+Q00024+C7FF04+C7FF05)
# run-description: Inhibition of mushroom tyrosinase at 100 uM using L-tyrosine as substrate preincubated for 10 mins followed by substrate addition measured after 20 mins by spectrophotometric method relative to control
measurement-kind: inhibition (%)

a. CC(C)=CCc1c(O)cc2c(c1O)C(=O)CC(c1ccc(O)c(O)c1CC=C(C)C)O2 (centres undefined)
b. C=CC(C)(C)c1cc(C2CC(=O)c3c(O)cc(O)c(CC=C(C)C)c3O2)c(OC)cc1O (centres undefined)
c. C=CC(C)(C)c1cc(C2CC(=O)c3c(O)cc(O)c(CC=C(C)C)c3O2)c(O)cc1O (centres undefined)
d. C=CC(C)(C)c1cc(C2CC(=O)c3c(cc(O)c(CC=C(C)C)c3O)O2)c(OC)cc1O (centres undefined)
[ask] Rank the compounds listed above in increasing order of inhibition. // respond by listing labels in the order requested
[reply] d, a, b, c
(d: 0%, a: 9.4%, b: 63.8%, c: 95%)
